# Tested on: K24384-001-R-PDC complex spheroid growth
# method: Anticancer human tumor K24384-001-R-PDC patient-derived pancreatic adenocarcinoma cell line growth inhibition [AhR]
# protocolConditions: curve of compound
pIC50: −log10 of the molar value.
metricName: pIC50

// worked examples, pIC50 included
Request: If you can, please state the reported pIC50 value of O=C(c1cc(Cc2n[nH]c(=O)c3ccccc23)ccc1F)N1CCN(C(=O)C2CC2)CC1 .
Response: < 5.00

Request: If you can, please state the reported pIC50 value of Cn1ncnc1C1c2n[nH]c(=O)c3cc(F)cc(c23)NC1c1ccc(F)cc1 (configuration not stated) .
Response: < 7.00

Request: If you can, please state the reported pIC50 value of CC(C)c1c(-c2ccccc2)nc2c(C#N)c[nH]n2c1=O .
Response: < 5.00

Request: If you can, please state the reported pIC50 value of CCN(c1cc(-c2ccc(CN3CCOCC3)cc2)cc(C(=O)NCc2c(C)cc(C)[nH]c2=O)c1C)C1CCOCC1 .
Response: < 5.52

Request: If you can, please state the reported pIC50 value of Nc1ncn(C2CC(O)C(CO)S2)c(=O)n1 (configuration not stated) .
Response: < 6.52

Request: If you can, please state the reported pIC50 value of Nc1ncn(C2CC(O)C(CO)O2)c(=O)n1 (configuration not stated) .
Response: < 6.00

With those in mind, consider the next compound.
Request: If you can, please state the reported pIC50 value of COc1cc(Nc2ncc3c(n2)-c2ccc(Cl)cc2C(c2c(F)cccc2OC)=NC3)ccc1C(=O)O .
Response: < 5.00

###

# Test system: K24384-001-R-PDC complex spheroid growth
# method: Anticancer human tumor K24384-001-R-PDC cell line growth inhibition [AhR];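 for viability, T/C: percent of DMSO vehicle-treated spheroid viability set as 100%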
# protocolConditions: second compound 10 µM; first compound 0.949 µM; stronger effect = lower value
metricName: viability, T/C

// worked examples, viability, T/C included
Request: If you can, please state the reported viability, T/C value of O=C(C=Cn1cnc(-c2cc(C(F)(F)F)cc(C(F)(F)F)c2)n1)NNc1cnccn1 + CC(CO)NC(=O)c1cc(-c2ccc(Cl)cc2)nn(-c2cnn(C)c2)c1=O .
Response: 29.3%

Request: If you can, please state the reported viability, T/C value of CCN(c1cc(-c2ccc(CN3CCOCC3)cc2)cc(C(=O)NCc2c(C)cc(C)[nH]c2=O)c1C)C1CCOCC1 + Cc1cncc(-c2nc(NCCc3c[nH]c4ccccc34)c3ncn(C(C)C)c3n2)c1 .
Response: 10.1%

Request: If you can, please state the reported viability, T/C value of CCN(c1cc(-c2ccc(CN3CCOCC3)cc2)cc(C(=O)NCc2c(C)cc(C)[nH]c2=O)c1C)C1CCOCC1 + CC(CO)NC(=O)c1cc(-c2ccc(Cl)cc2)nn(-c2cnn(C)c2)c1=O .
Response: 99.4%

Continuing:
Request: If you can, please state the reported viability, T/C value of CCN(c1cc(-c2ccc(CN3CCOCC3)cc2)cc(C(=O)NCc2c(C)cc(C)[nH]c2=O)c1C)C1CCOCC1 + Cc1ccccc1N=Nc1ccc(NC(=O)c2ccnn2C)c(C)c1 .
Response: 128%

Request: If you can, please state the reported viability, T/C value of O=C(C=Cn1cnc(-c2cc(C(F)(F)F)cc(C(F)(F)F)c2)n1)NNc1cnccn1 + Cc1ccccc1N=Nc1ccc(NC(=O)c2ccnn2C)c(C)c1 .
Response: 32.9%

Request: If you can, please state the reported viability, T/C value of O=C(C=Cn1cnc(-c2cc(C(F)(F)F)cc(C(F)(F)F)c2)n1)NNc1cnccn1 + Cc1cncc(-c2nc(NCCc3c[nH]c4ccccc34)c3ncn(C(C)C)c3n2)c1 .
Response: 15.1%

###

Attribute: viability, T/C
# Test system: K24384-001-R-PDC complex spheroid growth
# method: Anticancer human tumor K24384-001-R-PDC cell line growth inhibition [AhR];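 for viability, T/C: percent of DMSO vehicle-treated spheroid viability set as 100%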
# protocolConditions: second compound 1 µM; first compound 3.16 µM; stronger effect = lower value
Note: unit % is implicit; provide only the numeric part.

// worked examples, viability, T/C included
Request: Identify the measured viability, T/C of O=C(C=Cc1cccc(S(=O)(=O)Nc2ccccc2)c1)NO + Cc1cncc(-c2nc(NCCc3c[nH]c4ccccc34)c3ncn(C(C)C)c3n2)c1 for K24384-001-R-PDC complex spheroid growth.
Response: 41.1

Request: Identify the measured viability, T/C of COc1cc(Nc2ncc3c(n2)-c2ccc(Cl)cc2C(c2c(F)cccc2OC)=NC3)ccc1C(=O)O + CC(CO)NC(=O)c1cc(-c2ccc(Cl)cc2)nn(-c2cnn(C)c2)c1=O for K24384-001-R-PDC complex spheroid growth.
Response: 49.5

Request: Identify the measured viability, T/C of Nc1ccccc1NC(=O)c1ccc(CNC(=O)OCc2cccnc2)cc1 + Cc1cncc(-c2nc(NCCc3c[nH]c4ccccc34)c3ncn(C(C)C)c3n2)c1 for K24384-001-R-PDC complex spheroid growth.
Response: 33.6

Request: Identify the measured viability, T/C of Nc1ccn(C2OC(CO)C(O)C2(F)F)c(=O)n1 (configuration not stated) + CC(CO)NC(=O)c1cc(-c2ccc(Cl)cc2)nn(-c2cnn(C)c2)c1=O for K24384-001-R-PDC complex spheroid growth.
Response: 26.7

Request: Identify the measured viability, T/C of CC1(C)CCC(CN2CCN(c3ccc(C(=O)NS(=O)(=O)c4ccc(NCC5CCOCC5)c([N+](=O)[O-])c4)c(Oc4cnc5[nH]ccc5c4)c3)CC2)=C(c2ccc(Cl)cc2)C1 + CC(CO)NC(=O)c1cc(-c2ccc(Cl)cc2)nn(-c2cnn(C)c2)c1=O for K24384-001-R-PDC complex spheroid growth.
Response: 110

Continuing:
Request: Identify the measured viability, T/C of O=C(c1cc(Cc2n[nH]c(=O)c3ccccc23)ccc1F)N1CCN(C(=O)C2CC2)CC1 + Cc1cncc(-c2nc(NCCc3c[nH]c4ccccc34)c3ncn(C(C)C)c3n2)c1 for K24384-001-R-PDC complex spheroid growth.
Response: 128

Request: Identify the measured viability, T/C of CC(C)c1c(-c2ccccc2)nc2c(C#N)c[nH]n2c1=O + Cc1cncc(-c2nc(NCCc3c[nH]c4ccccc34)c3ncn(C(C)C)c3n2)c1 for K24384-001-R-PDC complex spheroid growth.
Response: 99

Request: Identify the measured viability, T/C of O=C(C=Cc1cccc(S(=O)(=O)Nc2ccccc2)c1)NO + Cc1ccccc1N=Nc1ccc(NC(=O)c2ccnn2C)c(C)c1 for K24384-001-R-PDC complex spheroid growth.
Response: 35.1

Request: Identify the measured viability, T/C of CC(C)c1c(-c2ccccc2)nc2c(C#N)c[nH]n2c1=O + Cc1ccccc1N=Nc1ccc(NC(=O)c2ccnn2C)c(C)c1 for K24384-001-R-PDC complex spheroid growth.
Response: 105

Request: Identify the measured viability, T/C of COc1cc(C2c3cc4c(cc3C(OC3OC5COC(C)OC5C(O)C3O)C3COC(=O)C23)OCO4)cc(OC)c1O (configuration not stated) + Cc1cncc(-c2nc(NCCc3c[nH]c4ccccc34)c3ncn(C(C)C)c3n2)c1 for K24384-001-R-PDC complex spheroid growth.
Response: 42.1

Request: Identify the measured viability, T/C of CC1COCCN1c1cc(C2(S(C)(=N)=O)CC2)nc(-c2ccnc3[nH]ccc23)n1 (configuration not stated) + CC(CO)NC(=O)c1cc(-c2ccc(Cl)cc2)nn(-c2cnn(C)c2)c1=O for K24384-001-R-PDC complex spheroid growth.
Response: 66.5

Request: Identify the measured viability, T/C of NS(=O)(=O)OCC1CC(n2ccc3c(NC4CCc5ccccc54)ncnc32)CC1O (configuration not stated) + Cc1ccccc1N=Nc1ccc(NC(=O)c2ccnn2C)c(C)c1 for K24384-001-R-PDC complex spheroid growth.
Response: 24.2

###

# System: K24384-001-R-PDC complex spheroid growth
# method: Anticancer human tumor K24384-001-R-PDC cell line growth inhibition [AhR];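 for viability, T/C: percent of DMSO vehicle-treated spheroid viability set as 100%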
# protocolConditions: second compound 1 µM; first compound 0.003 µM; stronger effect = lower value
metricName: viability, T/C (%)
Note: unit % is implicit; provide only the numeric part.

// worked examples, viability, T/C included
Request: If you can, please state the reported viability, T/C value of Nc1ncn(C2CC(O)C(CO)S2)c(=O)n1 (centres undefined) + Cc1ccccc1N=Nc1ccc(NC(=O)c2ccnn2C)c(C)c1 .
Response: 82

Request: If you can, please state the reported viability, T/C value of CCc1c2c(nc3ccc(O)cc13)-c1cc3c(c(=O)n1C2)COC(=O)[C@]3(O)CC + CC(CO)NC(=O)c1cc(-c2ccc(Cl)cc2)nn(-c2cnn(C)c2)c1=O .
Response: 56.4

Request: If you can, please state the reported viability, T/C value of CC(C)CC(NC(=O)C(Cc1ccccc1)NC(=O)c1cnccn1)B(O)O (centres undefined) + CC(CO)NC(=O)c1cc(-c2ccc(Cl)cc2)nn(-c2cnn(C)c2)c1=O .
Response: 108

Continuing:
Request: If you can, please state the reported viability, T/C value of Nc1ncn(C2CC(O)C(CO)S2)c(=O)n1 (centres undefined) + CC(CO)NC(=O)c1cc(-c2ccc(Cl)cc2)nn(-c2cnn(C)c2)c1=O .
Response: 127

Request: If you can, please state the reported viability, T/C value of Nc1ncn(C2CC(O)C(CO)S2)c(=O)n1 (centres undefined) + Cc1cncc(-c2nc(NCCc3c[nH]c4ccccc34)c3ncn(C(C)C)c3n2)c1 .
Response: 162

Request: If you can, please state the reported viability, T/C value of CC(C)CC(NC(=O)C(Cc1ccccc1)NC(=O)c1cnccn1)B(O)O (centres undefined) + Cc1ccccc1N=Nc1ccc(NC(=O)c2ccnn2C)c(C)c1 .
Response: 79.5

Request: If you can, please state the reported viability, T/C value of CC(C)CC(NC(=O)C(Cc1ccccc1)NC(=O)c1cnccn1)B(O)O (centres undefined) + Cc1cncc(-c2nc(NCCc3c[nH]c4ccccc34)c3ncn(C(C)C)c3n2)c1 .
Response: 106

Request: If you can, please state the reported viability, T/C value of CCc1c2c(nc3ccc(O)cc13)-c1cc3c(c(=O)n1C2)COC(=O)[C@]3(O)CC + Cc1cncc(-c2nc(NCCc3c[nH]c4ccccc34)c3ncn(C(C)C)c3n2)c1 .
Response: 59.1

Request: If you can, please state the reported viability, T/C value of CCc1c2c(nc3ccc(O)cc13)-c1cc3c(c(=O)n1C2)COC(=O)[C@]3(O)CC + Cc1ccccc1N=Nc1ccc(NC(=O)c2ccnn2C)c(C)c1 .
Response: 100
